Measured values drawn from ChEMBL document CHEMBL4004885 for this set.

Measured Ratio IC50 accompanies every entry in the list below.
System: HGC-27
assay text: Potency index, ratio of salinomycin IC50 to test compound IC50 for human HGC27 cells
Format: functional

- chemical smiles: "CC[C@@H](C(=O)[C@@H](C)[C@@H](O)[C@H](C)[C@@H]1O[C@@H]([C@@H](CC)C(=O)ONC(=O)CCc2ccccc2)CC[C@@H]1C)[C@H]1O[C@]2(C=C[C@@H](O)[C@]3(CC[C@@](C)([C@H]4CC[C@](O)(CC)[C@H](C)O4)O3)O2)[C@H](C)C[C@@H]1C"
  Ratio IC50: "1.5 - 7"
- chemical smiles: "CC[C@@H](C(=O)[C@@H](C)[C@@H](O)[C@H](C)[C@@H]1O[C@@H]([C@@H](CC)C(=O)ONC(=O)c2ccccc2)CC[C@@H]1C)[C@H]1O[C@]2(C=C[C@@H](O)[C@]3(CC[C@@](C)([C@H]4CC[C@](O)(CC)[C@H](C)O4)O3)O2)[C@H](C)C[C@@H]1C"
  Ratio IC50: "1.5 - 7"
- chemical smiles: "CCCCCCCC(=O)NOC(=O)[C@H](CC)[C@H]1CC[C@H](C)[C@H]([C@@H](C)[C@H](O)[C@H](C)C(=O)[C@H](CC)[C@H]2O[C@]3(C=C[C@@H](O)[C@]4(CC[C@@](C)([C@H]5CC[C@](O)(CC)[C@H](C)O5)O4)O3)[C@H](C)C[C@@H]2C)O1"
  Ratio IC50: "1.5 - 2.5"
- chemical smiles: "CC[C@@H](C(=O)[C@@H](C)[C@@H](O)[C@H](C)[C@@H]1O[C@@H]([C@@H](CC)C(=O)ONC(=O)Cc2ccccc2)CC[C@@H]1C)[C@H]1O[C@]2(C=C[C@@H](O)[C@]3(CC[C@@](C)([C@H]4CC[C@](O)(CC)[C@H](C)O4)O3)O2)[C@H](C)C[C@@H]1C"
  Ratio IC50: "1.5 - 7"
- chemical smiles: "CC[C@@H](C(=O)[C@@H](C)[C@@H](O)[C@H](C)[C@@H]1O[C@@H]([C@@H](CC)C(=O)ONC(=O)c2ccc(Br)cc2)CC[C@@H]1C)[C@H]1O[C@]2(C=C[C@@H](O)[C@]3(CC[C@@](C)([C@H]4CC[C@](O)(CC)[C@H](C)O4)O3)O2)[C@H](C)C[C@@H]1C"
  Ratio IC50: 7

###

assay text: Chemical stability in RPMI1640 medium at 10 mg after 72 hrs by 1H NMR method
Format: physicochemical

- chemical smiles: "C/C=C/C=C/C(=O)NOC(=O)[C@H](CC)[C@H]1CC[C@H](C)[C@H]([C@@H](C)[C@H](O)[C@H](C)C(=O)[C@H](CC)[C@H]2O[C@]3(C=C[C@@H](O)[C@]4(CC[C@@](C)([C@H]5CC[C@](O)(CC)[C@H](C)O5)O4)O3)[C@H](C)C[C@@H]2C)O1"
  Stability: "Stable"
- chemical smiles: "CC[C@@H](C(=O)[C@@H](C)[C@@H](O)[C@H](C)[C@@H]1O[C@@H]([C@@H](CC)C(=O)ONC(=O)c2ccccc2)CC[C@@H]1C)[C@H]1O[C@]2(C=C[C@@H](O)[C@]3(CC[C@@](C)([C@H]4CC[C@](O)(CC)[C@H](C)O4)O3)O2)[C@H](C)C[C@@H]1C"
  Stability: "Stable"
- chemical smiles: "CC[C@@H](C(=O)[C@@H](C)[C@@H](O)[C@H](C)[C@@H]1O[C@@H]([C@@H](CC)C(=O)ONC(=O)CCc2ccccc2)CC[C@@H]1C)[C@H]1O[C@]2(C=C[C@@H](O)[C@]3(CC[C@@](C)([C@H]4CC[C@](O)(CC)[C@H](C)O4)O3)O2)[C@H](C)C[C@@H]1C"
  Stability: "Stable"
